- Tested on: NCI-H226 lung
- measurement-protocol: NCI-60 one-dose screen, 48 h
- assay-context: 10 µM
About 83,000 compounds went through this panel and 20% of them were active in at least one assay; those are over-represented in the sample as a whole. Calls of active or inactive are those of the source. How the source made its calls: active means growth percent below 10; inactive means the rest.
Mark one answer only. Choices: class 1 = active, class 0 = inactive

What did the test return for Oc1ccccc1-c1nnco1 ?
class 0

What did the test return for C#Cc1cccc(NC(=O)c2ccc(Cl)cc2Cl)c1 ?
class 0

What did the test return for CCN(CC)c1ccc2nc3ccc(=[N+](CC)CC)cc-3oc2c1 ?
class 1

What did the test return for COc1ccccc1C1OC2=Nc3cc(C)c(C)cc3NC2C1=O (centres undefined) ?
class 0

What did the test return for CNS(=O)(=O)c1ccc(Cl)c(Cl)c1 ?
class 0

What did the test return for N#Cc1ccc(NC(=O)Nc2cccc(C#N)c2)cc1 ?
class 0

What did the test return for COc1cc(C2NC(=O)C(C#N)=C(Nc3cccc(C)c3)S2)ccc1O (centres undefined) ?
class 0

What did the test return for CC1=CC(C)(C)NC(=S)N1c1ccc(S(=O)(=O)O)c2cccc(S(=O)(=O)O)c12 ?
class 0

What did the test return for C[C@]12CC[C@@H]3c4ccc(OCC(=O)O)cc4CC[C@H]3[C@@H]1CCC2=O ?
class 0

What did the test return for OCCN1CCOCC1 ?
class 0

What did the test return for NCCC(=O)c1ccc(Cl)cc1 ?
class 0

What did the test return for Cc1ccc(N)cc1[N+](=O)[O-] ?
class 0

What did the test return for CN(C)C(C)(C)CC(C)(C)C ?
class 0

What did the test return for N#C/C(=C\c1cc(O)c(O)c(O)c1)C(N)=O ?
class 0

What did the test return for CCN1C(=O)/C(=C/C=C/N(C)c2ccccc2)SC1=S ?
class 0

What did the test return for O=C1C=CC2=C3c4cc(O)c(O)cc4CC3(O)COC2=C1O (centres undefined) ?
class 0

What did the test return for CCCCC/C=N/Nc1nc(C)cc(=O)[nH]1 ?
class 0

What did the test return for Cc1c(O)cnc2nn(-c3ccccc3)c(=N)n12 ?
class 0

What did the test return for Cc1ccccc1C1N=C2Oc3ccccc3C=C2C(=O)N1 (centres undefined) ?
class 1

###

- Tested on: OVCAR-5 ovarian
- measurement-protocol: NCI-60 one-dose screen, 48 h (100 = growth as untreated, 0 = no growth, -100 = all killed)
- assay-context: 10 µM
About 83,000 compounds went through this panel and 20% of them were active in at least one assay; those are over-represented in the sample as a whole.
Would you mind telling me the reported growth of each entry?
Write the value in % as a bare number.

Value wanted: growth (OVCAR-5 ovarian) of entry COc1cc(C2c3cc4c(cc3C3OC(=O)C2C3CO)OCO4)cc(OC)c1OC (configuration not stated)
27.1

Value wanted: growth (OVCAR-5 ovarian) of entry Cc1cc(=O)cc(C)n1-c1ccccc1
98.3

Value wanted: growth (OVCAR-5 ovarian) of entry CCOc1ccc(/C=N/N=C(N)N)cc1OCC
101

Value wanted: growth (OVCAR-5 ovarian) of entry CC(=O)N(C)c1ccc([N+](=O)[O-])cc1
91.8

Value wanted: growth (OVCAR-5 ovarian) of entry C=C1CC/C=C(\C)C(=O)C[C@@H]2[C@@H]1CC2(C)C
108

Value wanted: growth (OVCAR-5 ovarian) of entry CN(C)c1ccc2oc(=O)c3ccccc3c2c1
91.9

Value wanted: growth (OVCAR-5 ovarian) of entry Cc1ccc(C)n1-c1ccsc1C(=O)NNC(=O)CCl
111
